# credit: PubChem BioAssay (NCI)

system: A549/ATCC NSCLC; assay: NCI-60 one-dose screen, 48 h (100 = growth as untreated, 0 = no growth, -100 = all killed); conditions: 10 µM unless noted
The panel holds about 83,000 compounds, 20% with a hit somewhere; the sample as a whole holds those more often. Active and inactive are the calls of the source. The calls were made as follows: active = growth percent below 10; inactive = the rest.

>  <Compound>
CCCCCCCCCCCCCCCC[N+]1(C)CCCC1c1cccnc1 (centres undefined)

>  <growth>
41.8% (inactive)

$$$$
>  <Compound>
COC1CC(C)C(OC)c2cc(O)cc(c2O)NC(=O)/C(C)=C/C=C\C(C)C(OC(N)=O)/C(C)=C\C(C)C1OC (centres undefined)

>  <growth>
13.3% (inactive)

$$$$
>  <Compound>
CCN(CC)CCNC(Cc1ccccc1)c1ccc(OCc2ccccc2)cc1 (centres undefined)

>  <growth>
69.6% (inactive)

$$$$
>  <Compound>
Fc1ccc(NCCS)cc1

>  <growth>
92.7% (inactive)

$$$$

====

Tested on: UACC-62 melanoma
Assay: NCI-60 one-dose screen, 48 h (100 = growth as untreated, 0 = no growth, -100 = all killed)
Conditions: 10 µM unless noted
Description: Growth inhibition of the UACC-62 human tumor cell line is measured as a screen for anti-cancer activity. Cells are grown in 96 well plates and exposed to the test compound for 48 hours. Compounds are tested at a single concentration, which is 10^-5 M for most compounds. The reported endpoint is percent growth (GI% or GIPRCNT), where numbers from 0 - 100% represent growth inhibition, and numbers from -100% - 0 represent cell death. For example, a value of 40 represents 60% growth inhibition. […]
About 83,000 compounds went through this panel and 20% of them were active in at least one assay; those are over-represented in the sample as a whole.
Classify by measured growth: 1 if it is equal to or exceeds 90%, -1 if it is smaller.

>  <Smiles>
COC(=O)C(=[N+]=[N-])C(=O)c1ccc([N+](=O)[O-])o1

>  <Subject Of Test>
UACC-62 melanoma

>  <Class Assignment>
-1

$$$$
>  <Smiles>
O=C1/C(=C/c2ccccn2)CCc2ccccc21

>  <Subject Of Test>
UACC-62 melanoma

>  <Class Assignment>
1

$$$$
>  <Smiles>
CC(C)=C1C=C2CC[C@@H]3[C@](C)(CCC[C@@]3(C)C(=O)O)[C@H]2CC1

>  <Subject Of Test>
UACC-62 melanoma

>  <Class Assignment>
1

$$$$

====

test system: LOX IMVI melanoma; assay: NCI-60 one-dose screen, 48 h (100 = growth as untreated, 0 = no growth, -100 = all killed); conditions: 10 µM
About 83,000 compounds went through this panel and 20% of them were active in at least one assay; those are over-represented in the sample as a whole.

>  <Compound>
CCOc1ccc(Nc2nc3c(s2)C(=O)c2ccccc2C3=O)cc1

>  <growth (%)>
-5.52

$$$$
>  <Compound>
CC(C)Nc1ccc(Nc2ccc(NC(C)C)cc2)cc1

>  <growth (%)>
39.9

$$$$
>  <Compound>
Oc1ccc2ccccc2c1N=Nc1nccs1

>  <growth (%)>
5.25

$$$$
>  <Compound>
CCCCCCN(CCCCCC)CCCNc1nccc2ccccc12

>  <growth (%)>
-39.3

$$$$
>  <Compound>
S=C=Nc1ccc(N2CCOCC2)cc1

>  <growth (%)>
92.4

$$$$
>  <Compound>
Oc1ccc2c(c1)CCc1ccccc1-2

>  <growth (%)>
107

$$$$
>  <Compound>
Cc1cc2nc(CC(=O)c3ccncc3)c(=O)[nH]c2cc1C

>  <growth (%)>
106

$$$$
>  <Compound>
CCN(CC)c1ccc(/C=C\C(=O)c2ccc(NC(C)=O)cc2)cc1

>  <growth (%)>
74.1

$$$$
>  <Compound>
OC(Cc1cc(CC(O)(C(F)(F)F)C(F)(F)F)nc(CC(O)(C(F)(F)F)C(F)(F)F)c1)(C(F)(F)F)C(F)(F)F

>  <growth (%)>
0.881

$$$$
>  <Compound>
NC(CS/C(Cl)=C/Cl)C(=O)O (centres undefined)

>  <growth (%)>
-57.3

$$$$
>  <Compound>
C/C(=N/NC(N)=S)c1ccc(C)cc1

>  <growth (%)>
108

$$$$
>  <Compound>
CC1(C)CCCC2=C1C(=O)N(SC(Cl)(Cl)Cl)C2=O

>  <growth (%)>
83.9

$$$$
>  <Compound>
COC(=O)c1cc([N+](=O)[O-])cc([N+](=O)[O-])c1Cl

>  <growth (%)>
57.7

$$$$
>  <Compound>
CCOC(=O)C1=C(C(=O)c2ccccc2)C(c2cccc([N+](=O)[O-])c2)C(C(=O)c2ccccc2)=C(C(=O)OCC)N1

>  <growth (%)>
-57.6

$$$$
>  <Compound>
N=C(N)Sc1cccc[n+]1[O-]

>  <growth (%)>
-30.9

$$$$
>  <Compound>
N=C1C=C(N)C(=O)c2ccccc21

>  <growth (%)>
-100

$$$$
>  <Compound>
Cn1ccc(=Nc2ccc(NC(=O)c3ccc(N=c4ccn(C)c5ccc([N+](=O)[O-])cc45)cc3)cc2)cc1

>  <growth (%)>
56.2

$$$$
>  <Compound>
NC(=S)N/N=C/c1ncccc1O

>  <growth (%)>
10.5

$$$$
>  <Compound>
S=C(S)OCN1CCOCC1

>  <growth (%)>
63.4

$$$$
>  <Compound>
COc1ccc2c(c1)c(CC(=O)O)c(C)n2C(=O)c1ccc(Cl)cc1

>  <growth (%)>
90.9

$$$$
>  <Compound>
CCCCCCCCCCCC[S+](C)CC(=O)[O-] (centres undefined)

>  <growth (%)>
32.9

$$$$
>  <Compound>
OCCOSCCO

>  <growth (%)>
103

$$$$
>  <Compound>
CN=C(N)N/N=C(\C)c1ccc2c(c1)Cc1ccccc1-2

>  <growth (%)>
-83.9

$$$$
>  <Compound>
Cc1ccc(Nc2ccc(O)c3c2C(=O)c2c(O)ccc(Nc4ccc(C)cc4)c2C3=O)cc1

>  <growth (%)>
96.9

$$$$
>  <Compound>
Nc1cc(-c2ccccc2)ccc1O

>  <growth (%)>
90

$$$$
>  <Compound>
CCc1cnc2ccccc2c1/C=C/c1ccc(N(C)C)cc1

>  <growth (%)>
43.7

$$$$
>  <Compound>
CCNc1nnnn1CC

>  <growth (%)>
98.7

$$$$
>  <Compound>
S=c1[nH]c2cc(Cl)ccc2s1

>  <growth (%)>
97.6

$$$$
>  <Compound>
O=[N+]([O-])c1ccc2c(c1)Cc1ccccc1-2

>  <growth (%)>
100

$$$$
>  <Compound>
CCC1C[N+]2=C(c3cc(OC)c(OC)cc3CC2)c2c1cc1n2CCc2cc(OC)c(OC)cc2-1 (centres undefined)

>  <growth (%)>
41.7

$$$$
>  <Compound>
O=C/C=C/c1ccc([N+](=O)[O-])cc1

>  <growth (%)>
83.8

$$$$
>  <Compound>
CC(C)c1ccc(Nc2n[nH]c(=S)s2)cc1

>  <growth (%)>
101

$$$$
>  <Compound>
O=C1C(=O)c2cccnc2-c2ncccc21

>  <growth (%)>
-83.8

$$$$
>  <Compound>
CCCCCCCCCCCC[n+]1ccc2ccccc2c1

>  <growth (%)>
-75

$$$$

====

system: M14 melanoma; assay: NCI-60 one-dose screen, 48 h; conditions: 10 µM unless noted
This is part of a sample that, as a whole, favours compounds with a hit. Of some 83,000 tested, about 20% had one in any assay. Activity calls are given as the source filed them. How the source made its calls: active means growth percent below 10; inactive means the rest.
Labels: TRUE (active), FALSE (inactive)

>  <Molecule>
O=C(Cc1nc2cc(Cl)c(Cl)cc2nc1CC(=O)c1cccnc1)c1cccnc1

>  <Class Assignment>
FALSE

$$$$
>  <Molecule>
COc1cc2c(c(OC)c1OC)-c1ccc(NCc3ccccc3)c(=O)cc1[C@@H](NC(C)=O)CC2

>  <Class Assignment>
FALSE

$$$$
>  <Molecule>
COC1=CC(=O)c2c(O)c3c(c(O)c2C1=O)CC(C)(O)OC3 (centres undefined)

>  <Class Assignment>
TRUE

$$$$
>  <Molecule>
CN(C)CCN(C)CC(C)(C)C(=O)/C=C/c1ccc(Cl)c(Cl)c1

>  <Class Assignment>
TRUE

$$$$
>  <Molecule>
CC[n+]1ccc(Nc2ccc(NC(=O)c3ccc(Nc4cc[n+](CC)c5ccc([N+](=O)[O-])cc45)cc3)cc2)cc1

>  <Class Assignment>
FALSE

$$$$
>  <Molecule>
NC(=S)N/N=C\c1nccc2c(C(F)(F)F)cccc12

>  <Class Assignment>
TRUE

$$$$
>  <Molecule>
COc1cc(NCc2ccc3nc(N)nc(N)c3c2C)cc(OC)c1OC (tested in a mixture with another compound)

>  <Class Assignment>
FALSE

$$$$
>  <Molecule>
CCCCCCCCCCCCCCCCCC[S+](C)CC (centres undefined)

>  <Class Assignment>
TRUE

$$$$
>  <Molecule>
CCOc1ccc(Nc2nc3c(s2)C(=O)c2ccccc2C3=O)cc1

>  <Class Assignment>
FALSE

$$$$
